settings: pH 2.7
Marks after values point to notes of the source that are not given here.
As shown below, each of these molecules has a reported Log P value.

// Log P lookup, key: CCOC(=O)C(C#N)=C(NC(C)C1CC1)c1ccnn1C(F)F (stereo not drawn) [Compound 1647]
3.01^[a]

* * *

settings: pH 2.3
Marks after values point to notes of the source that are not given here.
reported.metric: Log P

Worked cases, answers included:
CC(C)NC(=O)C(C#N)=C(NC(C)C(C)C)c1cccnc1Cl (stereo not shown) : 3.37
COC(=O)C(C#N)=C(NC(C)C(C)C)c1cccnc1Cl (stereo not shown) : 3
CCOC(=O)C(C#N)=C(Nc1cccc(F)c1F)c1cccnc1Cl : 3
CCOC(=O)C(C#N)=C(Nc1ccccc1OC(F)(F)F)c1cccnc1Cl : 3.52

// Log P lookup, key: COC(=O)C(C#N)=C(NC(C)c1nccs1)c1sccc1Cl (stereo not shown)
2.61

Similarly, CNC(=O)C(C#N)=C(NC(C)C1CC1)c1cccnc1Cl (racemic) ?
2.2^[c]; 2.2^[b]

Similarly, COC(=O)C(C#N)=C(NC(CO)C(N)=O)c1cccnc1Cl (stereo not shown) ?
0.97

Similarly, `CCOC(=O)C(C#N)=C(Nc1ccc(F)cc1F)c1cccnc1Cl` ?
2.95

Similarly, CCOC(=O)C(C#N)=C(NC(C)C(C)C)c1cccnc1 (stereo not shown) ?
2.61

Similarly, CCCCCCC(C)NC(=C(C#N)C(=O)OCC)c1cccnc1Cl (racemic) ?
4.53

Similarly, CNC(=O)C(C#N)=C(NC(C)C(C)C)c1cccnc1Cl (stereo not shown) ?
2.41^[c]; 2.41^[b]

Similarly, `C=CCOC(=O)C(C#N)=C(Nc1ccccc1SC)c1cccnc1Cl` ?
3.32^[c]; 3.32^[b]

Similarly, `CCOC(=O)C(C#N)=C(Nc1cnc2sccc2c1)c1cccnc1Cl` ?
2.56

Similarly, CC(C)C(C)NC(=C(C#N)C(=O)On1nnc2ccccc21)c1cccnc1Cl (stereo not shown) ?
3.22

Similarly, `CCOC(=O)C(C#N)=C(Nc1ccn(C)c1SC)c1cccnc1Cl` ?
3.01^[c]; 3.01^[b]

Similarly, CCCNC(=O)C(C#N)=C(NC(C)C(C)C)c1cccnc1Cl (stereo not shown) ?
3.24

Similarly, CCOC(=O)C(C#N)=C(NC(C)C(C)C)c1cccnc1C (stereo not shown) ?
2.63

Similarly, `C#CCNC(=C(C#N)C(=O)OCC)c1cccnc1Cl` ?
2.18

Similarly, `CCOC(=O)C(C#N)=C(Nc1ccc(F)c(F)c1)c1cccnc1Cl` ?
3
